Source listed as PubChem BioAssay AID1985.

- Experimental protocol: PhoP regulon inhibitor project modified counter assay, GFP fluorescence readout, dose response (AID 1985)
- Cond: S. Typhi, 4 h; series mostly up to 150 µM
The campaign covered roughly 2,300 compounds. About 1,000 (43%) were called active. The set was probably picked from earlier hits. This is one part of the list. Results with a measured potency or affinity are listed apart.
Assay endpoint: outcome

Record excerpt, results attached:
[[record]]
compound = "CCCCn1c(NS(=O)(=O)c2ccc(C)cc2)c(S(=O)(=O)c2ccccc2)c2nc3ccccc3nc21"
assay_endpoint = "outcome"
measured_result = "inactive"

[[record]]
compound = "CC1=C([N+](=O)[O-])C(c2cccc(Br)c2)C2=C(N1)c1ccccc1C2=O (stereo not given)"
assay_endpoint = "outcome"
measured_result = "inactive"

[[record]]
compound = "CC1CCN(CCC(=O)Nc2ccc(Cl)cc2)CC1"
assay_endpoint = "outcome"
measured_result = "inactive"

[[record]]
compound = "CCCCn1c(NCc2ccccc2NS(=O)(=O)c2ccc(C)cc2)nc2ccccc21"
assay_endpoint = "outcome"
measured_result = "inactive"

[[record]]
compound = "CS(=O)(=O)N(CCc1ccccc1)CC(=O)Nc1ccc2c(c1)OCO2"
assay_endpoint = "outcome"
measured_result = "inactive"

[[record]]
compound = "O=C(NCc1ccccn1)c1nc(Cn2ccc([N+](=O)[O-])n2)no1"
assay_endpoint = "outcome"
measured_result = "inactive"

[[record]]
compound = "CN(C)C(/C=C/Nc1ccc(F)cc1F)=C(C#N)C#N"
assay_endpoint = "outcome"
measured_result = "inactive"

[[record]]
compound = "O=S(=O)(Nc1c(S(=O)(=O)c2ccccc2)c2nc3ccccc3nc2n1C1CCCCC1)c1ccccc1"
assay_endpoint = "outcome"
measured_result = "inactive"


[Q] Need outcome, item `CC(C)CC(=O)N1CCN(C(=O)CCC2CCCC2)CC1`
[A] inactive

[Q] Param item = `CCN1CCN(CC(=O)Nc2ccc(C)c(Br)c2)CC1` ; retrieve measured outcome.
[A] inactive
